TARGET_OF_ASSAY: xanthine oxidase (Bos taurus, UniProt P80457)
Construct: Xanthine oxidase from bovine milk (EC 1.17.3.2); purchased Sigma Aldrich Co., (St. Louis, MO, USA); host or cells: bovine milk
Sequence (P80457 whole entry): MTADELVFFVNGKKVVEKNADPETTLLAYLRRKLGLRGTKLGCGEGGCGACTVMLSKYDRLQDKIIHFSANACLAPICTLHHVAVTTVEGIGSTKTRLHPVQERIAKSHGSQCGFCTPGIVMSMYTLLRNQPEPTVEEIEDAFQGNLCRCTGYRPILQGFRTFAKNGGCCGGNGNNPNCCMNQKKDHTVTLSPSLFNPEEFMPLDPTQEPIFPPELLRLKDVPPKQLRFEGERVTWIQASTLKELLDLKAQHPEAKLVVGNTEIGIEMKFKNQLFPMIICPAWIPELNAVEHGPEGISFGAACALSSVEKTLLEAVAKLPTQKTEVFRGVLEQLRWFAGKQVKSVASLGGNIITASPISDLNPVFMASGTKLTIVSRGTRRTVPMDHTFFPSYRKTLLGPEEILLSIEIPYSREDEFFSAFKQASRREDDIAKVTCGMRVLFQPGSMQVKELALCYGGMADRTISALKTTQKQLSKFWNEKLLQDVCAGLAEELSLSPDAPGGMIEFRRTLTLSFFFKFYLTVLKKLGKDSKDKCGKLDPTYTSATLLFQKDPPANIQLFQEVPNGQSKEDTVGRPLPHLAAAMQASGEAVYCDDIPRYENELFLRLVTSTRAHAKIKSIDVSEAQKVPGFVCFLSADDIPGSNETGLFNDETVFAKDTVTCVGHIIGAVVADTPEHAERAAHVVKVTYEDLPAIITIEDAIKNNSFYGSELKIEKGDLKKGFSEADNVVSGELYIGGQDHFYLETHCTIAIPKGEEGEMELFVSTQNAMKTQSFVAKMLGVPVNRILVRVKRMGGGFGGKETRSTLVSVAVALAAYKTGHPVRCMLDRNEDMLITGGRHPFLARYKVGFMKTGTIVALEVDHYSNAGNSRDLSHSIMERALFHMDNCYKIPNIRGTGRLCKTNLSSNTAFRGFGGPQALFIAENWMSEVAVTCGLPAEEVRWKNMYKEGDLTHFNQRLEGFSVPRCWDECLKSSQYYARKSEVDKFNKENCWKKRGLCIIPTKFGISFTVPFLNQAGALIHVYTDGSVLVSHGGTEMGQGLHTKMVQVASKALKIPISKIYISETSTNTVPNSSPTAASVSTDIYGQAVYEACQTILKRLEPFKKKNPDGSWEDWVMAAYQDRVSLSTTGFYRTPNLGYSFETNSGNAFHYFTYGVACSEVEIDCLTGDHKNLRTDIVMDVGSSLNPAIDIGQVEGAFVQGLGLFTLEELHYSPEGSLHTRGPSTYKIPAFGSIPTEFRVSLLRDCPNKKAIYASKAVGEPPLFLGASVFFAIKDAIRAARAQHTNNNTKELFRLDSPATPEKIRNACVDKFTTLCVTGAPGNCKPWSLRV
METHOD_NOTES: Fluorescence quenching of xanthine oxidase (binding affinity)
Parameters: species or system bovine
REPORTED_CONDITIONS: excitation 290 nm, emission 300-400 nm; read-out: binding constant KA (converted)
Would you kindly list Kd for each of these compounds?
Provide only the numeric value, understood in nM.

*Q* Please look up its Kd: CC(C)=CCc1c2c(c3occ(-c4ccc(O)cc4)c(=O)c3c1O)C=CC(C)(C)O2
*A* 2140

*Q* Please look up its Kd: C=CC(C)(C)C1=Cc2c(c(CC=C(C)C)c3occ(-c4ccc(O)c(O)c4)c(=O)c3c2O)OC1(C)C
*A* 1380

*Q* Please look up its Kd: CC(C)=CCc1c(O)c(CC=C(C)C)c2occ(-c3ccc(O)c(O)c3)c(=O)c2c1O
*A* 1110

*Q* Please look up its Kd: COc1cc(-c2coc3c(CC=C(C)C)c(O)c(CC=C(C)C)c(O)c3c2=O)ccc1O
*A* 4110

*Q* Please look up its Kd: CC(C)=CCc1c2c(c(O)c3c(=O)c(-c4ccc(O)c(O)c4)coc13)C=CC(C)(C)O2
*A* 1330

*Q* Please look up its Kd: CC(C)=CCc1c(O)c(CC=C(C)C)c2occ(-c3ccc(O)cc3)c(=O)c2c1O
*A* 1500

*Q* Please look up its Kd: CC(C)=CCc1c(-c2coc3cc(O)cc(O)c3c2=O)cc2c(c1O)OC(C)(C)C=C2
*A* 1600

*Q* Please look up its Kd: CC(C)=CCc1cc(-c2coc3cc(O)cc(O)c3c2=O)c(CC=C(C)C)c(O)c1O
*A* 1120

*Q* Please look up its Kd: O=c1c(-c2ccc(O)cc2)coc2cc(O)cc(O)c12
*A* 1990

---

TARGET_OF_ASSAY: xanthine oxidase (Bos taurus, UniProt P80457)
Construct: Xanthine oxidase from bovine milk (EC 1.17.3.2); purchased Sigma Aldrich Co., (St. Louis, MO, USA); host or cells: bovine milk
METHOD_NOTES: Fluorescence quenching of xanthine oxidase (binding affinity)
Parameters: species or system bovine
REPORTED_CONDITIONS: excitation 290 nm, emission 300-400 nm
PARAMETER_MEASURED: Stern–Volmer constant KSV (L/mol)
Provide only the numeric value, understood in L/mol.

*Q* Please look up its Stern–Volmer constant KSV: CC(C)=CCc1c2c(c3occ(-c4ccc(O)cc4)c(=O)c3c1O)C=CC(C)(C)O2
*A* 9870

*Q* Please look up its Stern–Volmer constant KSV: COc1cc(-c2coc3c(CC=C(C)C)c(O)c(CC=C(C)C)c(O)c3c2=O)ccc1O
*A* 9300

*Q* Please look up its Stern–Volmer constant KSV: CC(C)=CCc1cc(-c2coc3cc(O)cc(O)c3c2=O)c(CC=C(C)C)c(O)c1O
*A* 94970

*Q* Please look up its Stern–Volmer constant KSV: C=CC(C)(C)C1=Cc2c(c(CC=C(C)C)c3occ(-c4ccc(O)c(O)c4)c(=O)c3c2O)OC1(C)C
*A* 55310

*Q* Please look up its Stern–Volmer constant KSV: O=c1c(-c2ccc(O)cc2)coc2cc(O)cc(O)c12
*A* 18450
